meta.source: PubChem BioAssay

Test system: Sonic hedgehog protein (Shh)
Test: small-molecule binders of Shh protein, primary screen, biochemical, small-molecule microarray, 635/667 nm fluorescence (AID 1151);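 further: Shh protein binding to compounds spotted on small-molecule microarray slides; score combines spot fluorescence intensity with signal-to-noise across triplicate slides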
Settings: small-molecule microarray binding, 635 nm fluorescence; higher = more signal
parameterMeasured: composite z-score
Number only, please.

Solved entries (count: 5):
{"compound": "CC=CC(O)C1C=CC2C(=O)N(c3ccccc3)C(=O)C2N1Nc1ccc(C(C)C)cc1 (stereo unspecified)", "targetOrSystem": "Sonic hedgehog protein (Shh)", "measuredNumber": -0.0469}
{"compound": "COCCOC(=O)N1C(=O)[C@@]2(c3cc(C#Cc4ccc(OC)cc4)ccc31)[C@H](C(=O)N1CCN(c3ncccn3)CC1)[C@H]1C(=O)O[C@H](c3ccccc3)[C@H](c3ccccc3)N1[C@@H]2c1ccc(O)cc1", "targetOrSystem": "Sonic hedgehog protein (Shh)", "measuredNumber": 0.736}
{"compound": "NC(=O)NCC#Cc1ccc2c(c1)[C@]1(C(=O)N2)[C@H](C(=O)NC[C@H](O)c2ccccc2)[C@H]2C(=O)O[C@H](c3ccccc3)[C@H](c3ccccc3)N2[C@@H]1c1ccc(O)cc1", "targetOrSystem": "Sonic hedgehog protein (Shh)", "measuredNumber": 1.02}
{"compound": "COC(=O)[C@@]1(Cc2ccc(F)cc2)[C@H]2c3cc(C(=O)N4CCCC4)n(Cc4cccc5ccccc45)c3C[C@H]2CN1C(=O)c1ccccc1", "targetOrSystem": "Sonic hedgehog protein (Shh)", "measuredNumber": -0.408}
{"compound": "CCOC(=O)C1=C[C@@H](C(C)C)N(S(=O)(=O)c2ccc(C)cc2)[C@H]1c1ccc(C(C)C)cc1", "targetOrSystem": "Sonic hedgehog protein (Shh)", "measuredNumber": 0.31}

From here, focus on the item given below.
Q: Reported composite z-score for "C=CCN1C(=O)[C@]2(O[C@H](CCO)[C@@H]([Si](C)(C)c3ccc(OC)cc3)[C@@H]2C)c2cc(NC(=O)[C@H](C)O)ccc21" : what is it?
A: 1.34
